Data provenance is the supplement of paper PMC7125110.

This listing pairs variants with measured self-cleavage kobs at 10000 uM GlcN6P.
B1: glmS ribozyme (parent)
chain: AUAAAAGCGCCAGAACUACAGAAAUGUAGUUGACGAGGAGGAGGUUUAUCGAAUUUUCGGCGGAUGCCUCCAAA

Variants of: B1
measurement description: self-cleavage kobs at 10000 uM GlcN6P; higher = faster cleavage; RNA array
experimental conditions: with glucosamine-6-phosphate
This sample holds only a part of the variants without activity.
Reply numerically in s⁻¹, unit not repeated.

Worked examples, 7 variants total:
U69C C71G	6.79e-05
A14U G40A U56G	0.00163
G40A C70A	0.000217
C11A C50A C68G	3.73e-05
U31C A39U U54C C71U	0.00213
A39C U56G	0.00322
A14G G60A	6.17e-05

Let us move to another entry and its self-cleavage kobs at 10000 uM GlcN6P.
Reported self-cleavage kobs at 10000 uM GlcN6P ( A14C G40U A53G ) = 0.000591
